- system: recombinant human soluble γ2 δ3TCR-FC (wild type) (human) (UniProt B7Z8K6)
- assaySummary: Octet, γ2δ3TCR-hFc captured on anti-human Fc biosensor; row antibody δ3-08 taken as first (saturating), column antibody as second; 5 µg/mL each; note: unit not given here
recordedMetric: paired-competition value (Octet signal of the second antibody per paragraph 256)
Form rule: numeric answer, no unit written next to it.

Use the examples below as a reference point.
The reported value for δ3-42 (antibody, V domains shown) VH: DVQLQESGPDLVKPSQSLSLTCTVTGYSITSGYNWHWIRQFPGNKLEWMGYIHYSGNTDYNPSLRSRISITRDTSKNQFFLHLNSVPTEDTATYYCARSGITTDWYFDVWGAGTTVTVSS VL: QIVLSQSPAILSASPGEKVTMTCRASSSVNYMHWYQQKPGSSPKPWIYATSNLASGVPARFSGSGSGTSYSLTISKVEAEDAATYYCQQWSSHQPTFGAGTKLELK in terms of paired-competition value (Octet signal of the second antibody per paragraph 256) is 0.21

Recorded paired-competition value (Octet signal of the second antibody per paragraph 256) (binder δ3-58 (antibody, V domains shown) VH: EVKLVESGGGLVQPGGSLKLSCAASGFTFSSYAMSWVRQTPEKRLEWVAYIRDGGGGTYYPDTVEGRFTISRDNAKNTLYLQMSSLKSEDTAMYYCARHPPMNDWFLYWGQGTLVTVSA VL: DIQMTQSPASLSVSVGETVTITCRASENIYSHLAWYQQKQGKSPQLLVYAATNLADGVPSRFSGSGSGTQYSLKINSLQSEDFGSYYCQHFWGTPYTFGGGTKLEIKR ): 0.22

The record that follows has no paired-competition value (Octet signal of the second antibody per paragraph 256) shown yet.
paired-competition value (Octet signal of the second antibody per paragraph 256) reading for δ3-31 (antibody, V domains shown) VH: DVQLQESGPDLVKPSQSLSLTCTVTGYSITSGYGWHWIRQFPGNKLEWMGYISFSGSNKYNPSLKSRISITRDTSKNQFFLQLNSVTTEDTATYYCANLDYWGQGTTLTVSS VL: DIQMTQRTSSLSASLGDRVTISCSASQDITNYLHWFQQKPDGTVKLLIYYTSTLHSGVPSRFSGSGSGTDYSLTISNLEPEDIATYYCQQYSKLPYTFGGGTKLEITR : 0.44
